pIC50 tested on IRAK4 (Homo sapiens (Human)): recorded values
Sequence (Q9NWZ3 whole entry, species assumed): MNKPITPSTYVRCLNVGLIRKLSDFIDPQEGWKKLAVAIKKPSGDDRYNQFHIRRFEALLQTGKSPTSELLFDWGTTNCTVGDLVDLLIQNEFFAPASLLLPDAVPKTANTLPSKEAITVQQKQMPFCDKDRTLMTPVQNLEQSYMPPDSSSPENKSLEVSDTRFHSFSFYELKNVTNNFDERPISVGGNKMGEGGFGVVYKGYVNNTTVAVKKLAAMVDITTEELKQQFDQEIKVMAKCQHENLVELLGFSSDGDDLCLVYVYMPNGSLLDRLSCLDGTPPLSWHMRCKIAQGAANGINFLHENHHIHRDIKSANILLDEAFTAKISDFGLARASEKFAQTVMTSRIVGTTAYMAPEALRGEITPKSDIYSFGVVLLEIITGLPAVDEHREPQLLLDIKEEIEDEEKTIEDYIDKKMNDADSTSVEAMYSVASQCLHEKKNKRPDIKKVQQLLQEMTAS
pIC50: −log10 of the molar value.
property label: pIC50

Previously resolved entries follow.
{"compound": "CC(C)Nc1cc(-n2ncc3cc(C#N)cnc32)ncc1-n1cc(CC[C@@](C)(O)CO)nn1", "pIC50": 8.22}
{"compound": "CC(C)Nc1cc(-n2ncc3cc(C#N)cnc32)ncc1-c1cn(C[C@H](C)O)nn1", "pIC50": 8.05}
{"compound": "CC(C)Nc1cc(-n2ncc3cc(C#N)cnc32)ncc1-c1cc([C@@H]2CCCCN2S(C)(=O)=O)on1", "pIC50": 9.00}
{"compound": "CC(C)Nc1cc(-n2ncc3cc(C#N)cnc32)ncc1-c1cn([C@H](C)[C@H](C)O)nn1 (single isomer, unassigned)", "pIC50": 8.15}
{"compound": "CCC(O)Cc1cn(-c2cnc(-n3ncc4cc(C#N)cnc43)cc2NC(C)C)nn1 (stereo not drawn)", "pIC50": 7.80}
{"compound": "CC(C)Nc1cc(-n2ncc3cc(C#N)cnc32)ncc1-n1cc(CO)nn1", "pIC50": 7.32}
{"compound": "CC(C)Nc1cc(-n2ncc3cc(C#N)cnc32)ncc1-n1cc(C2CCN(C(=O)C(F)(F)F)CC2)nn1", "pIC50": 8.40}
{"compound": "CNCCCc1cc(-c2cnc(-n3ncc4cc(C#N)cnc43)cc2NC(C)C)on1", "pIC50": 8.15}

I = CC(C)Nc1cc(-n2ncc3cc(C#N)cnc32)ncc1-c1cc(C2COC(C)(C)CN2)no1 (stereo not drawn)
II = CC(C)Nc1cc(-n2ncc3cc(C#N)c(N)nc32)ncc1-c1cn(CC(C)(C)O)nn1
III = CC(C)Nc1cc(-n2ncc3cc(C#N)cnc32)ncc1-c1cn(C[C@@H](C)O)nn1
IV = CC(C)Nc1cc(-n2ncc3cc(C#N)cnc32)ncc1-c1cn([C@@H]2CCN(S(C)(=O)=O)C[C@H]2O)nn1 (single isomer, unassigned)
Give the ascending ranking of the items by reported pIC50. Reply with the item labels sorted in the order that was asked for.
III, II, IV, I
(III: 7.80, II: 8.10, IV: 8.40, I: 8.70)

A = COC(=O)N1CC[C@@H](n2cc(-c3cnc(-n4ncc5cc(C#N)cnc54)cc3NC3CC3)nn2)[C@](C)(O)C1 (relative stereo)
B = CC(=O)N1CCCC(n2cc(-c3cnc(-n4ncc5cc(C#N)cnc54)cc3NC(C)C)nn2)C1 (stereo not drawn)
Just tell me: smaller pIC50 value, A or B ? Record your answer as the label of the chosen record.
A
